- study-target: UniProt:P31645
- assay-notes: In vitro binding inhibition towards human serotonin transporter
outcome-measure: Ki (nM)
Give bare numbers, in nM.

Param readout = Ki; param system = UniProt:P31645; param query = CN(C)C[C@H]1C[C@@H]1c1c[nH]c2ccc(C#N)cc12 ; response: value 0.18

###

- study-target: Sodium-dependent dopamine transporter (Homo sapiens)
- Sequence (Q01959 whole entry): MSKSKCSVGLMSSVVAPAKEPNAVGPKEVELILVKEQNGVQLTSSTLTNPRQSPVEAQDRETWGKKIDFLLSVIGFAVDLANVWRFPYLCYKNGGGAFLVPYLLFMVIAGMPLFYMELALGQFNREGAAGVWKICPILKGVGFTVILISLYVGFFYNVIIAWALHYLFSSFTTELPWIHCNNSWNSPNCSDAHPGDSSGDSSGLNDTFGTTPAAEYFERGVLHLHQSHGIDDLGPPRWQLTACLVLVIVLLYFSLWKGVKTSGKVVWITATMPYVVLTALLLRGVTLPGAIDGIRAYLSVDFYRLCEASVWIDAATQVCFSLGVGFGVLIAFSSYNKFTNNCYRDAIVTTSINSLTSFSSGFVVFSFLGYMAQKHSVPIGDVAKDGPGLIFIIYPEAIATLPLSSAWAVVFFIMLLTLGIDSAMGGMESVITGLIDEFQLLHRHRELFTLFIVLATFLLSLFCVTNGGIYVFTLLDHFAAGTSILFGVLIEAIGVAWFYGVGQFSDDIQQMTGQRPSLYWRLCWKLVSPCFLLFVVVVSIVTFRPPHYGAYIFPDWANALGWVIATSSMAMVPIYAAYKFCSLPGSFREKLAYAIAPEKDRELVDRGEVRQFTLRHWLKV
outcome-measure: Ki (nM)
Give bare numbers, in nM.

Param readout = Ki; param system = Sodium-dependent dopamine transporter (Homo sapiens); param query = CN(C)C[C@H]1C[C@@H]1c1c[nH]c2ccc(C#N)cc12 ; response: value 2100

###

- study-target: Sodium-dependent serotonin transporter (Homo sapiens, UniProt P31645)
- Sequence (P31645 whole entry): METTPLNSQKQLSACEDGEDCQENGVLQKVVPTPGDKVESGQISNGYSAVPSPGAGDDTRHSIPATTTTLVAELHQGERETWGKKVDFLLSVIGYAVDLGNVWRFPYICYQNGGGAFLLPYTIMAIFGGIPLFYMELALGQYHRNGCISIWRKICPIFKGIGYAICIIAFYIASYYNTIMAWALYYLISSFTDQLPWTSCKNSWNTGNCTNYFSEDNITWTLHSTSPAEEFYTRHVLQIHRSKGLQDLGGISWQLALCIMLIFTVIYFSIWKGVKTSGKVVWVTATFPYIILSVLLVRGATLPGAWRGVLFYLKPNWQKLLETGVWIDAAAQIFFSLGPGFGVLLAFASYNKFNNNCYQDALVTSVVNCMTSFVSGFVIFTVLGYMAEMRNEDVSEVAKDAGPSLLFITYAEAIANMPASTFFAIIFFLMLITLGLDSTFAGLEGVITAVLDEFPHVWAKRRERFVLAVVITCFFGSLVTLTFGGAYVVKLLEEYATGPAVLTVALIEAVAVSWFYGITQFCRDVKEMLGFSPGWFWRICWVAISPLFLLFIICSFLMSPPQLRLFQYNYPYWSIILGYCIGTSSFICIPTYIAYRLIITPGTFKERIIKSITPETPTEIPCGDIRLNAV
- assay-notes: Binding inhibition towards human serotonin transporter
I'd be grateful if you could share measured log10(Ki) for these entries.
Hi team, quick reminder: these entries are log10 of Ki (nM).

Give log10(Ki) for each listed item.
1. CN(C)C[C@H]1C[C@@H]1c1cn(C)c2ccc(C#N)cc12
2. CN(C)C[C@@H]1C[C@@H]1c1c[nH]c2ccc(F)cc12 (stereo in doubt; (-)-16e)
3. CN(C)C[C@H]1C[C@@H]1c1c[nH]c2cc(C#N)ccc12 (racemic)
4. CN(C)C[C@@H]1C[C@@H]1c1c[nH]c2ccc(F)cc12 (stereo in doubt; 16e)
5. CN(C)C[C@@H]1C[C@H]1c1c[nH]c2ccc(F)cc12
6. CN(C)CCCc1c[nH]c2ccc(C#N)cc12
7. CN(C)C[C@H]1C[C@@H]1c1c[nH]c2cccc(F)c12 (racemic)

0.81
1.15
0.87
1.38
1.61
0.30
1.77

Give log10(Ki) for each listed item.
1. CN(C)C[C@H]1C[C@@H]1c1c[nH]c2ccc(C#N)cc12 (racemic)
2. CN(C)C[C@H]1C[C@@H]1c1c[nH]c2cc(F)ccc12 (racemic)
3. CN(C)C[C@H]1C[C@@H]1c1c[nH]c2c(C#N)cccc12 (racemic)
4. CCn1cc([C@H]2C[C@@H]2CN(C)C)c2cc(C#N)ccc21

1: -0.25; 2: 1.58; 3: -0.24; 4: 0.26

Give log10(Ki) for each listed item.
1. CN(C)C[C@@H]1C[C@H]1c1c[nH]c2ccc(C#N)cc12
2. CN(C)CCCc1c[nH]c2ccc(F)cc12
3. CN(C)C[C@H]1C[C@@H]1c1c[nH]c2ccc(F)cc12
4. CN(C)C[C@H]1C[C@@H]1c1c[nH]c2ccc(F)cc12 (racemic)
5. CN(C)C[C@H]1C[C@@H]1c1c[nH]c2c(F)cccc12 (racemic)
6. CN(C)C[C@H]1C[C@H]1c1c[nH]c2ccc(F)cc12

1. 0.95
2. 0.60
3. -0.17
4. 0.32
5. 1.00
6. 2.00

Which log10(Ki) value is on record for CN(C)C[C@H]1C[C@H]1c1c[nH]c2ccc(C#N)cc12 ? 0.76
